- System Tested: T1, monomeric soluble human BTLA extracellular domain (BTLA K31-R151) (human, UniProt Q7Z6A9 31-151)
- T1 construct: also called hBTLA; monomeric BTLA
- T1 sequence (Q7Z6A9 31-151): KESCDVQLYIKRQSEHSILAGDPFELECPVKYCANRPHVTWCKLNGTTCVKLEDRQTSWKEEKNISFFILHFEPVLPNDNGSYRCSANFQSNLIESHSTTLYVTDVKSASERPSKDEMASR
- Experiment: SPR 37C, mAb captured, BTLA ECD analyte;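 note: Anti-BTLA mouse antibodies captured on a sensor chip via polyclonal anti-mouse IgG, isotype control antibody in reference channel, rates fitted after reference and blank subtraction to derive Kd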
pKd: −log10 of the molar value.
Quick rule: pKd of at least 6 means T, below that means F.

[[record]]
binder = "16F10 (antibody, IgG1, V domains shown, mIgG1) VH: DVQLQESGPGLVKPSQSLSLTCSVTGYSITSGYYWNWIRQFPGNKLEWMGYISYDGSNNYNPSLKNRISITRDTSKNQFFLKLNSVTTEDTATYYCASIYGNYYAMDYWGQGTSVTVSS VL: QIVLTQSPAIMSASPGEKVTMTCSASSSVSYMHWYQQKSGTSPKRWIYDTSKLASGVPARFSGSGSGTSYSLTISSMEAEDAATYYCQQWSSNPPTFGSGTKLEIK"
classification = "T"

[[record]]
binder = "8B4 (antibody, IgG1, V domains shown, mIgG1) VH: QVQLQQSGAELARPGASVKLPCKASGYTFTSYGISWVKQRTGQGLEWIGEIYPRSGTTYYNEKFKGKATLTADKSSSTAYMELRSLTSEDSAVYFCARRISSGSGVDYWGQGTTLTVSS VL: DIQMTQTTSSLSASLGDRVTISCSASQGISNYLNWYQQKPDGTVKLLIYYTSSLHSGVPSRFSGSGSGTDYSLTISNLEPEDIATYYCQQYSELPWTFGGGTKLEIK"
classification = "T"

[[record]]
binder = "4B1 (antibody, IgG1, V domains shown, mIgG1) VH: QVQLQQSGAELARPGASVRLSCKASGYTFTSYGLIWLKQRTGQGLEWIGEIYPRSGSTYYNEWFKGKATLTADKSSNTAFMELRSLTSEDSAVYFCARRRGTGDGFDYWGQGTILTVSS VL: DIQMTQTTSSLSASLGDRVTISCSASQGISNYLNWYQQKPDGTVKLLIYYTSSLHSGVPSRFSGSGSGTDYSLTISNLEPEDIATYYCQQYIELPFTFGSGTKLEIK"
classification = "T"

[[record]]
binder = "4D5 (antibody, IgG1, V domains shown, mIgG1) VH: QIQLVQSGPELKKPGETVKISCKASGYTFTTYGVSWVKQAPGKVLKWMGWINTYSGVPTYADDFKGRFAFSLETSASTAYLQISNLKNEDTATYFCAPVTTILHWYFDVWGTGTTVTVSS VL: DIQMTQSPSSLSASLGERVSLTCRASQEISGYLSWLQQKPDGTIKRLIYAASTLDSGVPKRFRGSRSGSDYSLTISSLESEDFADYYCLQYASYPFTFGSGTKLEIK"
classification = "F"

[[record]]
binder = "6.2 (antibody, IgG1, V domains shown, mIgG1; also called clone 6.2; parent clone 6.2) VH: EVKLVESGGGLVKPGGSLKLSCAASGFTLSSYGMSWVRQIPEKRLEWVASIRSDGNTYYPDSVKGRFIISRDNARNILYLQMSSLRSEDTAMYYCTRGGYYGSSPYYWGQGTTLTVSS VL: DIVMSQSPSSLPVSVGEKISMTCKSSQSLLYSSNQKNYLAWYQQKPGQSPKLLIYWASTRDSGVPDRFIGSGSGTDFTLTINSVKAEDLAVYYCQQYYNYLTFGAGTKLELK"
classification = "T"

[[record]]
binder = "3A9 (antibody, IgG1, V domains shown, mIgG1) VH: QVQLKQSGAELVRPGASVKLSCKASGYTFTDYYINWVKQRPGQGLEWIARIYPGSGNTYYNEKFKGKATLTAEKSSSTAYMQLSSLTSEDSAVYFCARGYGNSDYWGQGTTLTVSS VL: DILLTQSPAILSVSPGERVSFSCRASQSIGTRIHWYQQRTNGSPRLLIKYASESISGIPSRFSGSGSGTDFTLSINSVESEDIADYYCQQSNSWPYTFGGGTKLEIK"
classification = "F"

[[record]]
binder = "4H4 (antibody, IgG1, V domains shown, mIgG1) VH: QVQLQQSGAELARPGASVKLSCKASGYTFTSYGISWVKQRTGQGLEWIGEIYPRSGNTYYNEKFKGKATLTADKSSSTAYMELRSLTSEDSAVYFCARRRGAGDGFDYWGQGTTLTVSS VL: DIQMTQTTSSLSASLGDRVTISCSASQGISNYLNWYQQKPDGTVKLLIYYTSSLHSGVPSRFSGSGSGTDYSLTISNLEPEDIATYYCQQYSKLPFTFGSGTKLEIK"
classification = "F"

